- EXPERIMENTAL_SYSTEM: Mitogen-activated protein kinase 3 (Homo sapiens) (UniProt P27361);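 note: each value is a mean inhibition figure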
- Sequence (P27361 whole entry): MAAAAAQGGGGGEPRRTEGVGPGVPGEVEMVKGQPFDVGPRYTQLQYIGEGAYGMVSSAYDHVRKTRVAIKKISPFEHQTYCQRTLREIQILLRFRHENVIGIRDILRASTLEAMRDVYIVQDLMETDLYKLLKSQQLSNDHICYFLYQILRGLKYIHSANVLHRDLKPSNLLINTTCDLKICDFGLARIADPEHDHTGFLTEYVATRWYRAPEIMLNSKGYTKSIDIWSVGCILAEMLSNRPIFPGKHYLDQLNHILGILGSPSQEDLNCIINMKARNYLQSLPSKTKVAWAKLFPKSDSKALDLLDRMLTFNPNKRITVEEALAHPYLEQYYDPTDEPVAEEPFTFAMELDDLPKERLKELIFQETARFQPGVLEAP
- CONDITION_DETAILS: at 0.1 µM
Documented inhibition across a set of molecules
Answer with a number only, understood to be in %.

Study these solved cases before continuing.
O=C1Nc2ccc(C(=O)c3ccco3)cc2C1=Cc1cc(Cl)c(O)c(Cl)c1 = 1.44
CCn1c(-c2nonc2N)nc2c(N3CCCC3)nccc21 = 0.68
CNC(=O)c1cncc(/C=C/c2c(Cl)cccc2Cl)c1 = 5.34

Q: Tell me the measured inhibition of Cc1ccc(NC(=O)c2ccnc(N3CCCC3)c2)cc1-c1ccc(C(=O)NCC2CC2)cc1 , please.
Ans: 2.96

Q: Now try Cc1nn(C)c2cc(N(C)c3ccnc(Nc4cccc(S(N)(=O)=O)c4)n3)ccc12 .
Ans: 2.88

---

- EXPERIMENTAL_SYSTEM: Glycogen synthase kinase-3 beta (Homo sapiens) (UniProt P49841);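 note: values are mean percent inhibition of GSK3B activity, from the GSK Published Kinase Inhibitor Set (PKIS) screening dataset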
- Sequence (P49841 whole entry, looked up): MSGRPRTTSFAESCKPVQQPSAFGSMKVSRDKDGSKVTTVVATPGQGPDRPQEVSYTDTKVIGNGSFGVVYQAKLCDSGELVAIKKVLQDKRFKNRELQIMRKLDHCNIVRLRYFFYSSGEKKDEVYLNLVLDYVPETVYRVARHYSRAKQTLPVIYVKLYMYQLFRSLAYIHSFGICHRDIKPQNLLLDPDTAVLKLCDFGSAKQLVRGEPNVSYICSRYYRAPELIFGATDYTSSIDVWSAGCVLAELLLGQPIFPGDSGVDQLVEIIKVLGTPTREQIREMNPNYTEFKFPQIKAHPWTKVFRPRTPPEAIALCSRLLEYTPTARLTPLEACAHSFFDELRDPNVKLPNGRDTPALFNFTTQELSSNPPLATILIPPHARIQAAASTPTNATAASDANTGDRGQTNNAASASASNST
- CONDITION_DETAILS: at 0.1 µM
PARAMETER: inhibition (%)
Answer with a number only, understood to be in %.

COC(=O)Nc1nc2cc(Oc3cccc(NC(=O)Nc4cc(C(F)(F)F)ccc4F)c3)ccc2[nH]1 = 0.73

Q: Tell me the measured inhibition of CS(=O)(=O)CCNCc1nc(-c2ccc3ncnc(Nc4ccc(F)c(Cl)c4)c3c2)cs1 , please.
Ans: 1.2

---

- Test system: Epidermal growth factor receptor (Homo sapiens), P00533 [L861Q]
- Sequence (P00533 whole entry L861Q): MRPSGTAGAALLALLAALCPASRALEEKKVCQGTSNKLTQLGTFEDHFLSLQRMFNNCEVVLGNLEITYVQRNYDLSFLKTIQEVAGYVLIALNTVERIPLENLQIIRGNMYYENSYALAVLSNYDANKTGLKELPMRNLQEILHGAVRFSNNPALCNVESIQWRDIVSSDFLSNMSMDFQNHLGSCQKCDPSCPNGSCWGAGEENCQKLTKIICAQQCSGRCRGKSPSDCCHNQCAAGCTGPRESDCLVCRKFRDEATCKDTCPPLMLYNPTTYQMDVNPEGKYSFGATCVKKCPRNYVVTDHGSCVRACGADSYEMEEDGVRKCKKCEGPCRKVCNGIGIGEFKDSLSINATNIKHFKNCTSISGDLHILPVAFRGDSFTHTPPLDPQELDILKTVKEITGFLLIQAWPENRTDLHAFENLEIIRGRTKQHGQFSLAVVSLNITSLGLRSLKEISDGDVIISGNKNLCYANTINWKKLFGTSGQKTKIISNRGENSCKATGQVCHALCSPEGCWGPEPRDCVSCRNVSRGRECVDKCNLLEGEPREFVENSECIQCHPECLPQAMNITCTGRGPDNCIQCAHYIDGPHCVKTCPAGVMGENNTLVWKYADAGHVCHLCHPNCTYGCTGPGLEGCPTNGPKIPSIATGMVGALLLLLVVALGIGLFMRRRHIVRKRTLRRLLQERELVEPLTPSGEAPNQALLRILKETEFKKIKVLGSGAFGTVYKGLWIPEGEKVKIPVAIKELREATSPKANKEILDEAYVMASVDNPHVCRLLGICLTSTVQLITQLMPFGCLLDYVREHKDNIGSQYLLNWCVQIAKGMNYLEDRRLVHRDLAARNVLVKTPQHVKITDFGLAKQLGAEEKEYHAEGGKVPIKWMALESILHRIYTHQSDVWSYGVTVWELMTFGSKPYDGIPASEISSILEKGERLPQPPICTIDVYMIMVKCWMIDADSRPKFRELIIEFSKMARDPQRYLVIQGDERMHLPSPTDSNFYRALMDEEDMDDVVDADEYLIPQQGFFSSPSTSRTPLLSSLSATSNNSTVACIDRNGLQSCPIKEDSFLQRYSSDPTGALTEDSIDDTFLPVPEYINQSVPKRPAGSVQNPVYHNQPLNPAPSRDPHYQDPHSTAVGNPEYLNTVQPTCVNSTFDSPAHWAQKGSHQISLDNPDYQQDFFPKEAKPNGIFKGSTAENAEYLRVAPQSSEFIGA
- CONDITION_DETAILS: at 0.1 µM
Documented inhibition across a set of compounds
Answer with a number only, understood to be in %.

Study these solved cases before continuing.
Nc1nc(-c2ccccn2)c(-c2ccc3ncccc3n2)s1 = 1.79
COc1ccc(-c2coc3ncnc(N)c23)cc1 = 1.51
NC(=O)c1ccc(-c2nc(-c3ccccn3)c(-c3ccc4c(c3)OCO4)[nH]2)cc1 = 2.1
Cc1nn(C)c2cc(N(C)c3ccnc(Nc4cccc(S(N)(=O)=O)c4)n3)ccc12 = 2.56
CS(=O)(=O)CCNCc1ccc(-c2ccc3ncnc(Nc4ccc(OCc5cccc(F)c5)c(C(F)(F)F)c4)c3c2)o1 = 20.6

Q: Tell me the measured inhibition of CCn1c(-c2nonc2N)nc2c(C#CC(C)(C)O)nc(CN3CCCC3)cc21 , please.
Ans: -1.77

Q: Now try COc1cccc(-n2ncc3c(N/N=C/c4cccc(F)c4)ncnc32)c1 .
Ans: 2.52

Q: Now try CCn1c(-c2nonc2N)nc2cncc(C(=O)N3CC[C@H](N)C3)c21 .
Ans: 3.58

---

- EXPERIMENTAL_SYSTEM: Calcium/calmodulin-dependent protein kinase type IV (Homo sapiens) (UniProt Q16566);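 note: each value is the mean of the measured CAMK4 inhibition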
- Sequence (Q16566 whole entry): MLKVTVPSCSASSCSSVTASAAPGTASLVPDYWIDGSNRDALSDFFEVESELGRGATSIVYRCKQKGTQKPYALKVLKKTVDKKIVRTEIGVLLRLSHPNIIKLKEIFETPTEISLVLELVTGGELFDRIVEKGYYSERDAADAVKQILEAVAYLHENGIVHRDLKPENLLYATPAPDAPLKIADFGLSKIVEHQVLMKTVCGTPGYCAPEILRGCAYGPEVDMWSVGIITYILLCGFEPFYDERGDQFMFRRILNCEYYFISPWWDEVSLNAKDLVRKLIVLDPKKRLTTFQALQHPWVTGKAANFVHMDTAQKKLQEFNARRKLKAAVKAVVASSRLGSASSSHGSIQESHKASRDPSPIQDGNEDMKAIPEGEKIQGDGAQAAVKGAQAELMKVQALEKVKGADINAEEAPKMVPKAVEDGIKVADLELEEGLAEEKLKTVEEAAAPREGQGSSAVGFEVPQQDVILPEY
- CONDITION_DETAILS: at 1 µM
PARAMETER: inhibition (%)
Answer with a number only, understood to be in %.

COc1ccc(-c2nn3ncccc3c2-c2ccnc(Nc3ccc(Cl)c(C(F)(F)F)c3)n2)cc1 = -4.24
CN1CCC(C(=O)Nc2n[nH]c3nnc(-c4ccccc4)cc23)CC1 = -2.3

Q: Tell me the measured inhibition of COc1cc2ncn(-c3cc(O[C@H](C)c4ccccc4Cl)c(C(N)=O)s3)c2cc1OC , please.
Ans: -0.73

Q: Now try COc1cc(C)c(NC(=O)CN(C)C)cc1Nc1nc(Nc2cccc(F)c2C(N)=O)c2cc[nH]c2n1 .
Ans: 40

Q: Now try N#Cc1c(NC(=O)c2cccc3ccccc23)sc2c1CCCC2 .
Ans: 1.58

Q: Now try Cc1ccc(NC(=O)c2ccnc(N3CCCC3)c2)cc1-c1ccc(C(=O)NCC2CC2)cc1 .
Ans: 2.35

Q: Now try CNC(=O)c1cncc(/C=C/c2c(Cl)cccc2Cl)c1 .
Ans: 3.19

Q: Now try COc1ccc(COc2ccc(Cc3cnc(N)nc3N)cc2OC)cc1 .
Ans: 3.54

Q: Now try NC(=O)c1ccc(-c2nc(-c3ccccn3)c(-c3ccc4c(c3)OCO4)[nH]2)cc1 .
Ans: 0.4

Q: Now try O=C1NC(=O)C(N2CCc3ccccc32)=C1c1ccc(Cl)cc1 .
Ans: 0.58

Q: Now try CCn1c(-c2nonc2N)nc2cncc(C(=O)N3CCNCC3)c21 .
Ans: 1.55

Q: Now try CCc1cccc(NC(=O)Nc2ccc(Oc3ccc4nc(NC(=O)OC)[nH]c4c3)cc2)c1 .
Ans: -2.32

Q: Now try Cc1cccc(-c2n[nH]cc2-c2ccc3ncccc3n2)n1 .
Ans: 2.81

Q: Now try CCn1c(-c2nonc2N)nc2c(C#CC(C)(C)O)nc(CN3CCCC3)cc21 .
Ans: 1.55

Q: Now try CS(=O)(=O)CCNCc1ccc(-c2ccc3ncnc(Nc4ccc(OCc5ccccc5)c(Cl)c4)c3c2)o1 .
Ans: 1.37

Q: Now try NS(=O)(=O)c1cccc(-c2ccc3c(NC(=O)C4CC4)n[nH]c3c2)c1 .
Ans: -1.58

Q: Now try O=C1NC(=O)C(c2ccc(Cl)cc2)=C1Nc1ccc(Cl)c(C(=O)O)c1 .
Ans: 0.51

Q: Now try CS(=O)(=O)CCN(CC#N)Cc1ccc(-c2ccc3ncnc(Nc4ccc(OCc5cccc(F)c5)c(Cl)c4)c3c2)o1 .
Ans: -0.45

Q: Now try CCCN1CCC=C(c2ccc(Nc3nc(Nc4ccccc4C(N)=O)c4cc[nH]c4n3)c(C)c2)C1 .
Ans: 9.19

Q: Now try O=C1NC(=O)C(c2ccccc2Cl)=C1Nc1cccc(O)c1 .
Ans: 1.07
